biological target: PAD4 (Homo sapiens, UniProt Q9UM07); construct: made in house; assay: Inactivation kinetics of PAD4 (COLDER citrulline assay); assay type: biochemical; conditions: marks: * nonlinear fit of kobs versus [I], ‡ linear fit, † single kobs, read-out: kinact/KI (converted)
Sequence (Q9UM07 whole entry): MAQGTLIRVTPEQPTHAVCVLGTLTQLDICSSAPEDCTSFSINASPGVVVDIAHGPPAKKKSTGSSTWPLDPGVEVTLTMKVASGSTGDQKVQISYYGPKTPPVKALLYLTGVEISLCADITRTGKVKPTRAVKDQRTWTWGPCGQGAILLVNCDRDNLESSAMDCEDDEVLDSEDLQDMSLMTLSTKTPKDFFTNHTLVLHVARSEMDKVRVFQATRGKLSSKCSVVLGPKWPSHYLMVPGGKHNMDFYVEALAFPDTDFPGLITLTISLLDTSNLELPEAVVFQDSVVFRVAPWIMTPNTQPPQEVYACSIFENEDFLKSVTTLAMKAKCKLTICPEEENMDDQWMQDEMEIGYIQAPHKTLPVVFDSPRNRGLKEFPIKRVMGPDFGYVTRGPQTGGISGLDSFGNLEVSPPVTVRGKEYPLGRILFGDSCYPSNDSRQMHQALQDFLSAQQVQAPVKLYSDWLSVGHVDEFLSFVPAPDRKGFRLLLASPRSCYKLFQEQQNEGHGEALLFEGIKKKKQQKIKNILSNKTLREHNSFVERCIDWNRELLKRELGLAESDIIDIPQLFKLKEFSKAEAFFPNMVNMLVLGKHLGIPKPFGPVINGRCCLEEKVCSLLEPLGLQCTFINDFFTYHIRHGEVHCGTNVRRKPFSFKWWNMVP
log10 kinact/KI for assorted compounds
The figures below represent log10 of kinact/KI, where kinact/KI is stated in M⁻¹ s⁻¹.

compound	log10 kinact/KI
N=C(CF)NCCC[C@H](NC(=O)c1cc(I)c(F)c(I)c1O)c1nc2ccccc2[nH]1	0.70
COc1c(I)cc(I)cc1C(=O)NC(CCCNC(=N)CF)c1nc2ccccc2[nH]1 (centres unmarked)	1.10
N=C(CF)NCCC[C@H](NC(=O)c1cc(I)ccc1O)c1nc2ccccc2[nH]1	1.03
N=C(CF)NCCC[C@H](NC(=O)c1cc(Br)cc(Br)c1O)c1nc2ccccc2[nH]1	0.62
N=C(CCl)NCCC[C@H](NC(=O)c1ccccc1O)c1nc2ccccc2[nH]1	2.84

Param item = N=C(CF)NCCC[C@H](NC(=O)c1cc(Cl)cc(Cl)c1O)c1nc2ccccc2[nH]1 ; retrieve measured log10 kinact/KI. 0.68

Param item = N=C(CF)NCCC[C@H](NC(=O)c1cc(I)cc(I)c1O)c1nc2ccccc2[nH]1 ; retrieve measured log10 kinact/KI. 0.65

Param item = N=C(CF)NCCC[C@H](NC(=O)c1cc(I)cc(I)c1)c1nc2ccccc2[nH]1 ; retrieve measured log10 kinact/KI. 1.25
